Provide the recorded binding signal for the entries that follow.
# Target or system: MBP-FoxP3dN (Mus musculus, UniProt Q99JB6 188-423)
# Sequence: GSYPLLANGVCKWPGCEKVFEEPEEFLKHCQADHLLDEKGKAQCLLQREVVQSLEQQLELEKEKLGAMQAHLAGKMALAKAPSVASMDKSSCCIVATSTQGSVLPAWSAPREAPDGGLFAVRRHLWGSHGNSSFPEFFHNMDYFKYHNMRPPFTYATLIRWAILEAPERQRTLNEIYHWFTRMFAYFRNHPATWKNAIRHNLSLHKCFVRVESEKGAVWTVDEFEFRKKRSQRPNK
# Procedure details: PD-seq (MBP pull-down with sequencing); 20 mM Tris-HCl pH 7.5, 100 mM NaCl, 1.5 mM MgCl2, 0.4 uM protein, 0.1 uM dsDNA library, 30 min, room temperature, amylose pull-down; high values mean tight binding
# Condition info: protein: recombinant; tags: His6-MBP; chain copies: 2; dsDNA, one strand shown
Whole data set: some 16,000 sequences, median “rpm ratio (pull-down/input)” near 0.5, cut for the highest 2% near 5.5. Only a selection was taken, and the highest values are over-represented in it overall.

Please fill in: binding signal reported for GATGATTGTTCTCCCAGCTGATGAATTCTGTGTTTCGAGTAAACAAATTTTCCTAATCTTTCTGTTCAAGCGCCATCTAC = 3.31 RPM ratio (pull-down/input)

The reported binding signal of the sequence GATGATTGTTCTCCCAGCTGATGAATTTTTGTGCTCGAGTAAACAAATTTTCCTAATCTTTCTGTTCAAGCGCCATCTAC was 0.442 RPM ratio (pull-down/input)

// field: binding signal; key: GATGATTGTTCTCCCAGCTGATGAATTTTGCGTCTCGAGTAAACAAATTTTCCTAATCTTTCTGTTCAAGCGCCATCTAC ; value = 5.4 RPM ratio (pull-down/input)

The value of binding signal measured for the sequence GATGATTGTTCTCCCAGCTGATGAATTTGTGCTCTCGAGTAAACAAATTTTCCTAATCTTTCTGTTCAAGCGCCATCTAC turned out to be 2.89 RPM ratio (pull-down/input)

Memo: GATGATTGTTCTCCCAGCTGATGAATTGTGTTTTTCGAGTAAACAAATTTTCCTAATCTTTCTGTTCAAGCGCCATCTAC , reported binding signal: 6.66 RPM ratio (pull-down/input)

binding signal reported for this sequence GATGATTGTTCTCCCAGCTGATGAATTTGTGTGCTCGAGTAAACAAATTTTCCTAATCTTTCTGTTCAAGCGCCATCTAC : 5.67 RPM ratio (pull-down/input)

Looking up GATGATTGTTCTCCCAGCTGATGAATTCGCGGCATCGAGTAAACAAATTTTCCTAATCTTTCTGTTCAAGCGCCATCTAC , I see its binding signal listed as 0.76 RPM ratio (pull-down/input)

----------
# Target or system: MBP-FoxP3dN (Mus musculus, UniProt Q99JB6 188-423)
# Sequence: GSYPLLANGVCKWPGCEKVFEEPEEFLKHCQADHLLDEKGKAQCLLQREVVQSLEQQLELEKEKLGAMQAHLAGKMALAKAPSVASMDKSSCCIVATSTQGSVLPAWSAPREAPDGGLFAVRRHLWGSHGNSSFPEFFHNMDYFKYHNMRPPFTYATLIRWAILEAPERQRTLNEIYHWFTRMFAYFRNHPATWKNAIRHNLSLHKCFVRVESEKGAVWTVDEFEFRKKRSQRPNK
# Procedure details: PD-seq (MBP pull-down with sequencing); 20 mM Tris-HCl pH 7.5, 100 mM NaCl, 1.5 mM MgCl2, 0.4 uM protein, 0.1 uM dsDNA library, 30 min, room temperature, amylose pull-down; high values mean tight binding
# Condition info: protein: recombinant; tags: His6-MBP; chain copies: 2; dsDNA, one strand shown
Over roughly 16,000 sequences, “rpm ratio (pull-down/input)” has its median near 0.5; the highest 2% begin near 5.5. What follows is part of a selection rich in the highest values, with near analogues and random picks from the rest.
Observation type: binding signal

Lab note: GATGATTGTTCTCCCAGCTGATGAATTGCTGTTTTCGAGTAAACAAATTTTCCTAATCTTTCTGTTCAAGCGCCATCTAC gave binding signal of 2.65 RPM ratio (pull-down/input)

Value of binding signal reported for the sequence GATGATTGTTCTCCCAGCTGATGAATTAGCTGATTCGAGTAAACAAATTTTCCTAATCTTTCTGTTCAAGCGCCATCTAC is 1.17 RPM ratio (pull-down/input)

Note to self: binding signal recorded for GATGATTGTTCTCCCAGCTGATGAATTTGCTGTTTCGAGTAAACAAATTTTCCTAATCTTTCTGTTCAAGCGCCATCTAC was 6.28 RPM ratio (pull-down/input)

sequence GATGATTGTTCTCCCAGCTGATGAATTGTTTATCTCGAGTAAACAAATTTTCCTAATCTTTCTGTTCAAGCGCCATCTAC , binding signal observed: 6.57 RPM ratio (pull-down/input)

Lab book: binding signal of GATGATTGTTCTCCCAGCTGATGAATTTGGCCATTCGAGTAAACAAATTTTCCTAATCTTTCTGTTCAAGCGCCATCTAC noted as 4.06 RPM ratio (pull-down/input)

GATGATTGTTCTCCCAGCTGATGAATTTTTTACATCGAGTAAACAAATTTTCCTAATCTTTCTGTTCAAGCGCCATCTAC yielded binding signal of 0.25 RPM ratio (pull-down/input)

Recorded binding signal (sequence GATGATTGTTCTCCCAGCTGATGAATTTGTTTTATCGAGTAAACAAATTTTCCTAATCTTTCTGTTCAAGCGCCATCTAC ): 6.46 RPM ratio (pull-down/input)

So for GATGATTGTTCTCCCAGCTGATGAATTCTGTTAATCGAGTAAACAAATTTTCCTAATCTTTCTGTTCAAGCGCCATCTAC , the logged binding signal turned out to be 1.25 RPM ratio (pull-down/input)

GET /value?item= GATGATTGTTCTCCCAGCTGATGAATTTGCTGCTTCGAGTAAACAAATTTTCCTAATCTTTCTGTTCAAGCGCCATCTAC &field=binding signal returns 3.05 RPM ratio (pull-down/input)

The value of binding signal measured for the sequence GATGATTGTTCTCCCAGCTGATGAATTCAGGCGATCGAGTAAACAAATTTTCCTAATCTTTCTGTTCAAGCGCCATCTAC turned out to be 0.508 RPM ratio (pull-down/input)

Looking up GATGATTGTTCTCCCAGCTGATGAATTTTGCTATTCGAGTAAACAAATTTTCCTAATCTTTCTGTTCAAGCGCCATCTAC , I found its binding signal recorded as 5.16 RPM ratio (pull-down/input)

So, GATGATTGTTCTCCCAGCTGATGAATTTGACGAGTCGAGTAAACAAATTTTCCTAATCTTTCTGTTCAAGCGCCATCTAC ? Its binding signal was 0.235 RPM ratio (pull-down/input)

binding signal for GATGATTGTTCTCCCAGCTGATGAATTTTTTATCTCGAGTAAACAAATTTTCCTAATCTTTCTGTTCAAGCGCCATCTAC is 0.243 RPM ratio (pull-down/input)

The value of binding signal measured for the sequence GATGATTGTTCTCCCAGCTGATGAATTCCGGGTGTCGAGTAAACAAATTTTCCTAATCTTTCTGTTCAAGCGCCATCTAC turned out to be 0.669 RPM ratio (pull-down/input)

The sequence identified as GATGATTGTTCTCCCAGCTGATGAATTCAATAGGTCGAGTAAACAAATTTTCCTAATCTTTCTGTTCAAGCGCCATCTAC registered its binding signal at 0.536 RPM ratio (pull-down/input)

The measured binding signal associated with GATGATTGTTCTCCCAGCTGATGAATTGGCATCCTCGAGTAAACAAATTTTCCTAATCTTTCTGTTCAAGCGCCATCTAC reads 4.28 RPM ratio (pull-down/input)

GATGATTGTTCTCCCAGCTGATGAATTGTTTACATCGAGTAAACAAATTTTCCTAATCTTTCTGTTCAAGCGCCATCTAC yielded binding signal of 8.09 RPM ratio (pull-down/input)

Form: sequence = GATGATTGTTCTCCCAGCTGATGAATTAGCGCATTCGAGTAAACAAATTTTCCTAATCTTTCTGTTCAAGCGCCATCTAC ; binding signal = 7.23 RPM ratio (pull-down/input)

For reference, reported binding signal for GATGATTGTTCTCCCAGCTGATGAATTCGTGGCATCGAGTAAACAAATTTTCCTAATCTTTCTGTTCAAGCGCCATCTAC stands at 1.13 RPM ratio (pull-down/input)

# binding signal of GATGATTGTTCTCCCAGCTGATGAATTTGGCATTTCGAGTAAACAAATTTTCCTAATCTTTCTGTTCAAGCGCCATCTAC = 6.16 RPM ratio (pull-down/input)

response.value for GATGATTGTTCTCCCAGCTGATGAATTTGGCATCTCGAGTAAACAAATTTTCCTAATCTTTCTGTTCAAGCGCCATCTAC (field: binding signal) = 6.36 RPM ratio (pull-down/input)

Consider GATGATTGTTCTCCCAGCTGATGAATTGCTATTTTCGAGTAAACAAATTTTCCTAATCTTTCTGTTCAAGCGCCATCTAC . Its measured binding signal is 1.47 RPM ratio (pull-down/input)

For record GATGATTGTTCTCCCAGCTGATGAATTTAAGTGCTCGAGTAAACAAATTTTCCTAATCTTTCTGTTCAAGCGCCATCTAC the listed binding signal is 0.628 RPM ratio (pull-down/input)

GATGATTGTTCTCCCAGCTGATGAATTTTTGCTTTCGAGTAAACAAATTTTCCTAATCTTTCTGTTCAAGCGCCATCTAC has a reported binding signal of 0.978 RPM ratio (pull-down/input)

get_value(item= GATGATTGTTCTCCCAGCTGATGAATTGGCATCTTCGAGTAAACAAATTTTCCTAATCTTTCTGTTCAAGCGCCATCTAC , readout=binding signal) returns 4.07 RPM ratio (pull-down/input)

# sequence GATGATTGTTCTCCCAGCTGATGAATTAACAATGTCGAGTAAACAAATTTTCCTAATCTTTCTGTTCAAGCGCCATCTAC ; its binding signal = 0.512 RPM ratio (pull-down/input)

Given item GATGATTGTTCTCCCAGCTGATGAATTGTGGCATTCGAGTAAACAAATTTTCCTAATCTTTCTGTTCAAGCGCCATCTAC , the value recorded as its binding signal is 6.18 RPM ratio (pull-down/input)

Recorded result, GATGATTGTTCTCCCAGCTGATGAATTCTTTGCTTCGAGTAAACAAATTTTCCTAATCTTTCTGTTCAAGCGCCATCTAC , binding signal: 0.407 RPM ratio (pull-down/input)

The recorded binding signal for entry GATGATTGTTCTCCCAGCTGATGAATTTTTGGCATCGAGTAAACAAATTTTCCTAATCTTTCTGTTCAAGCGCCATCTAC equals 0.785 RPM ratio (pull-down/input)
